- Method summary: reversal of MRP1-mediated doxorubicin resistance, pilot screen, H69AR cells, doxorubicin co-treatment (AID 601)
- Conditions used: H69AR cells + 2 uM doxorubicin, CellTiter-Glo, 72 h; measured here: viability with 2 uM doxorubicin; at 10 µM; stronger effect = lower value
Measurement label: viability (%)
Entry rule: numbers only, all in %.

Given item COc1ccc(N2C(=O)CC(N3CCCC4CCCCC43)C2=O)cc1 (centres undefined) , the value recorded as its viability is 81.5

For reference, reported viability for CO[C@H]1C=CO[C@@]2(C)Oc3c(C)c(O)c4c(O)c(c(C=NN5CCN(C)CC5)c(O)c4c3C2=O)NC(=O)C(C)=CC=C[C@H](C)[C@H](O)[C@@H](C)[C@@H](O)[C@@H](C)[C@H](OC(C)=O)[C@@H]1C stands at 87.3

Cc1cc(C(=O)COC(=O)c2n[nH]c3ccccc23)c(C)n1C yielded viability of 82.6

So, O=C(CCSc1ccccc1)Nc1ccc(S(=O)(=O)N2CCOCC2)cc1 ? Its viability was 91.6

Notebook: O=C(CSc1nnc(-c2ccco2)n1-c1ccccc1)N1CCN(C(=O)c2ccco2)CC1 , viability read as 85.9

molecule Clc1ccc(-n2nnnc2Sc2ncnc3sccc23)cc1 , viability observed: 1.56

The measured viability associated with CCOC(=O)NC(=O)CSc1nnnn1-c1ccc(Cl)cc1 reads 85.7

Recorded result, COC(=O)c1ccc(CSc2nnnn2Cc2ccccc2)cc1 , viability: 85.2

GET /value?item= Cc1ccc(C)c(N(CC(=O)NC2CCCC2)C(=O)CCCC(=O)Nc2ccccn2)c1 &field=viability returns 87.8
